Values compiled from patent US20180179273A1.

Catalogue of binders with associated koff
- Assay System: human alpha-synuclein (human, UniProt P37840 1-140)
- Assay Info: SPR Biacore 3000, synuclein ligand format

[
  {
    "Binder": "2E6-HLD-2 (antibody, V domains shown, Humanized 2E6) VH: QVQLVQSGAEVKKPGASVKVSCKASGYTFTSYWMHWVRQAPGQGLEWIGRIDPNSGTTKYNVNFKTRATLTVDKSTSTAYMELSSLRSEDTAVYYCARLGHYGNLYAMDYWGQGTLVT VL: EIVLTQSPATLSLSPGERATLSCSASSSVSYMHWYQQKPGQAPRRWIYDTSKLASGVPARFSGSGSGTDYTLTISSLEPEDFAVYYCQQWSSNPPTFGQGTKLEIKR",
    "koff": "0.000285 s⁻¹"
  },
  {
    "Binder": "2E6 HLD 3 (antibody, V domains shown) VH: QVQLVQSGAEVKKPGASVKVSCKASGYTFTSYWMHWMRQAPGQGLEWIGRIDPNSGTTKYNVNFKTRVTLTVDKSTSTAYMELSSLRSEDTAVYYCARLGHYGNLYAMDYWGQGTLVT VL: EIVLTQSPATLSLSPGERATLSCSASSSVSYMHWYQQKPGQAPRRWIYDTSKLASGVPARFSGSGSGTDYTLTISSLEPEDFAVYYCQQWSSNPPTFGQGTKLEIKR",
    "koff": "0.00026 s⁻¹"
  },
  {
    "Binder": "2E6-HLD-1 (antibody, V domains shown, Humanized 2E6 tested as IgG; also called Humanized HLD-1) VH: QVQLVQSGAEVKKPGASVKVSCKASGYTFTSYWMHWMRQAPGQGLEWIGRIDPNSGTTKYNVNFKTRATLTVDKSTSTAYMELSSLRSEDTAVYYCARLGHYGNLYAMDYWGQGTLVT VL: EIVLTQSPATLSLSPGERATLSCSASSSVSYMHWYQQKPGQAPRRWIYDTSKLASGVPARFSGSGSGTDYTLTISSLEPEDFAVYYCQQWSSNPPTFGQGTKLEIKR",
    "koff": "0.000212 s⁻¹"
  },
  {
    "Binder": "ch2E6 (antibody, V domains shown, also called chimeric 2E6) VH: QVQLQQPGAELVKPGASVKLSCTASGYTFTSYWMHWMKQRPGRGLEWIGRIDPNSGTTKYNVNFKTKATLTVDKPSSTAYMHLSSLTSEDSAVYYCARLGHYGNLYAMDYWGQGTSVT VL: QIVLTQSPAIMSASPGEKVTMTCSASSSVSYMHWYQQKSGTSPKRWIYDTSKLASGVPTRFSGSGSGTSYSLTISSMDTEDAATYYCQQWSSNPPTFGAGTKLELK",
    "koff": "0.000265 s⁻¹"
  }
]
